condition_context: 313.15 K, Pendant drop shape
outcome_measure: surface tension liquid-gas (mN/m)

smiles_string: COCCO
outcome_measure: surface tension liquid-gas
measured: 29.42
//
smiles_string: Cc1cc(C)cc(C)c1
outcome_measure: surface tension liquid-gas
measured: 26.82
//
smiles_string: COCCOC
outcome_measure: surface tension liquid-gas
measured: 22.51
//
smiles_string: Cc1ccc(C)c(C)c1
outcome_measure: surface tension liquid-gas
measured: 27.67

* * *

condition_context: 298.15 K, Pendant drop shape
outcome_measure: surface tension liquid-gas (mN/m)

smiles_string: COCCOC
unit_of_measure: mN/m
measured: 23.93

smiles_string: Cc1ccc(C)c(C)c1
unit_of_measure: mN/m
measured: 29.29

smiles_string: COCCO
unit_of_measure: mN/m
measured: 30.88

smiles_string: Cc1cc(C)cc(C)c1
unit_of_measure: mN/m
measured: 28.09
